Please go through the items and note down their MIC.
# System: Pseudomonas aeruginosa
# test_details: Antibacterial activity against Pseudomonas aeruginosa RCMB 010043 by broth dilution method
# Format: functional
Form entry: value (µg/mL) — number only.

[ask] Return reported MIC; argument: `CC(=O)OCCSc1nnc(-c2nnn(-c3ccccc3Cl)c2-c2nnc(SCCOC(C)=O)o2)o1`
[reply] 31.2

[ask] Which MIC is reported for this compound? CC(=O)OCC(CSc1nnc(-c2nnn(-c3ccccc3Cl)c2-c2nnc(SCC(COC(C)=O)OC(C)=O)o2)o1)OC(C)=O (centres undefined)
[reply] 31.2

[ask] Need MIC, item OCC(O)CSc1nnc(-c2nnn(-c3ccccc3Cl)c2-c2nnc(SCC(O)CO)o2)o1 (centres undefined)
[reply] 4

[ask] For `CC(=O)OCCCSc1nnc(-c2nnn(-c3ccccc3Cl)c2-c2nnc(SCCCOC(C)=O)o2)o1` , what is its reported MIC?
[reply] 31.2

[ask] Quick one: MIC for `CCOCCSc1nnc(-c2nnn(-c3ccccc3Cl)c2-c2nnc(SCCOCC)o2)o1` ?
[reply] 31.2

[ask] Which measured MIC value corresponds to `OCCCSc1nnc(-c2nnn(-c3ccccc3Cl)c2-c2nnc(SCCCO)o2)o1` ?
[reply] 4

[ask] Request the reported MIC associated with `OCCSc1nnc(-c2nnn(-c3ccccc3Cl)c2-c2nnc(SCCO)o2)o1`
[reply] 4

[ask] Given `CCOCSc1nnc(-c2nnn(-c3ccccc3Cl)c2-c2nnc(SCOCC)o2)o1` , state its recorded MIC.
[reply] 31.2
